Taken from the nanobody polyreactivity screen of Harvey et al. (2022).

experiment: yeast display, Sf9 membrane polyspecificity reagent, FACS + sequencing; frameworks hold sequencing errors
property measured: polyreactivity (PSR sort gate)

Below are worked cases with known answers.
QVQLVESGGGLVQAGGSLRLSCAPTGFTIGWYAMGWYRQAPGKERELVATISWSGSSTYYADSVKGRFTISRDNAKNTVYLQMNSLKPEDTAVYYCNAVYGRFVVLRYDYWAQGTQVTVSS; high polyreactivity
QVQLVESGGGLVQAGGSLRISCAASGRIFGFNAMGWYRQAPGKERELVAAISRTSSSTYYADSVKGRFTISRDNAKNTVYLQMNSLKPEDTAVYYCATRYFTHGKYDYWGQGTQVTVSS; high polyreactivity
QVQLVESGGGLVQAGGSHRLSCAASGSIFPSYAKGWYRQAPGKERELVATIGRGGTTNYADSVKGRFTISRDNAKNTVYLQMNSLKPEDTAVYYCNAERIWRYKYGYDYWGQGTQVTVSS; high polyreactivity
QVQLVESGGGLVQAGGSLRLSCAASGSIFNTYAMGWYRQAPGKERELVAAISRSGDSTYYADSVKGRFTISRDNAKNTVYLQMNSLKPEDTAVYYCATGRTDHGYYYWGQGTQVTVSS; high polyreactivity
QVQLVESGGGLVQAGGSLRLSCAASGSIFGVNTMGWYRQAPGKERELVAAISSGGNTHYADSVKGRFTISRDNAKNTVYLQMNSLKPEDTAVYYCAAAYVGIYYVSRRRWERYYYWGQGTQVTVSS; high polyreactivity
QDHHVESGGGLVQARGTLRLSCAASGIIYSYYAMGWFRQAPGKEWELVAAITASGGSTYYADSVKGRFTISRDNAKNTVYLQMNSLKPQDTGVSYCAAGSFFLHLIGYSTVSYGRNYWGQGTQVTVAS; high polyreactivity
QVQLVESGGGLVQAGGSLRLSCAASGGIFRGYAMGWYRQAPGKERELVATSRSSGRTNYADSVKGRFTISRDNAKNTVYLQMNSLKPEDTAVYFCNKRRWWQYDSWGDWVLGGDDYWGQGTQVTVSS; low polyreactivity
QVQLEESGGGLVQAGGSLRLSCAASGRTLDYYAMGWYRQAPGKERELVASITSGGSTNYADSVKGRFTISRDNAKNTVYLQMNSLKPEDTAVYYCAADSAFYRDVKSNYWGQGTQVTVSS; low polyreactivity

Reported polyreactivity (PSR sort gate) for QVQLVESGGGLVQAGGSLRLSCAASGSTLRSKAMGWYRQAQGKERELVASISSGGSTSYADSVKGRFTISRDNAKNTVYLQMNSLKPEDTAVYYCAADNSVGSYDYWGQGTQVTVSS was low polyreactivity

Reported polyreactivity (PSR sort gate) for QVHLVESGGGLVQAGGSLRLSCAASGRIFGKYAMGWYRQAPGKERELVAAISSSGRTNSADSVKGRFTISRDNAKNTVYLQMNSLKPADTAVYYCAVRVLIHTNTRRLDYWGQGTQVTVSS was high polyreactivity

Reported polyreactivity (PSR sort gate) for QVQLVESGGGLVQAGGSLRLSCAASGSIFDGYAMGWYRQAPGKETELVARITWSGGSTYYADSVKWRFTISRDNAKNTVYLQMNSLKPEDTAVYYCNVDQVHPTRGLDYWGQGTQVTVSS was low polyreactivity

* * *

experiment: yeast display, Sf9 membrane polyspecificity reagent, FACS + sequencing; frameworks hold sequencing errors
property measured: polyreactivity (PSR sort gate)

Below are worked cases with known answers.
QVQLVESGGGLVQAGGSLRLSCAASGSIFNRYAMGWYRQEPGKERELVAAISRSGGRTYYADSVKGRFTISRDNAKNTVYLQMNSLKPEDTAVYYCAAQSYLHYGYWGQGTQVTVSS; high polyreactivity
QVQLVESGGGLDQAGGSLRLSCAASGYVMGWYRQAPGKERELVASITRGTSTYYADSVKGRFTISRDNAKNTVYLQMNSLKPEDTAVYYCAARTTSGEWPPGKIGTYLYDYWGQGTQVTVSS; low polyreactivity
QVQLVESGGGLVQAGGSLRLSCAASGRIFYWNAMGCYRQAPGKERELVADISTGGSTYYADSVKGRFTISRDNAKNTVYLQMNRLKPEDTAVYYCAVVYVSLWPSATDWSGFGYWGQGTQVTVSS; low polyreactivity
QVQLVESGGGLVQAGGSLRLSCAASGRTFIPNAMGWYRQAPGKERELVARITLRGGSTYYADSVKGRFTISRDNAKNTVYLQMNSLKPEDTAVYYCAAVFSRKGLRYDYWGQGTQVTVSS; low polyreactivity
QVQLVESAGGLVQAGGSLRLSCAASARTFSAYSMGWYRQAPGKERELVAAISRRGRSTYYADSVKGRFTISRDNAKNTVYLQMTSLKPEDTAVYYCAADVYKQYGYYYWGLGTQVTVSS; high polyreactivity
QVQLVESGGGLVQAGGSLRLSCAATRYTFSHYAMGCYRQAPGKERELVAAMSGSGGNTYYADSVKGRFTISRDHAKNTVYLQMNSLKPEDTAVYYCNADNEYRLGYWDDSWVQGTQVTVSS; low polyreactivity
QVQLVESGGALDQARGSLSLSCAASGFLFGQNAMVWSRQAPGKLREFVATNNRSGGSTYYADSVKGRFTISRDNAKNTVYVQMNSLKPEDTAVYYCAKGPRMSSSLRYSAYWIMNYWGQGTQVTVSS; high polyreactivity
QVQLVESGGGLVQAGGSLRLSCAASGITFRPYPMGWYRQAPGKERELVATINWSGGSTYYADSVKGRFTISRDNAKKTVYLQMNSLKPEDTAVSYCAVTWYVRRWYGYWGQGTQVTVSS; high polyreactivity
QVQLVESGGGLVQAGGSRSLSCAASGSILWYYAMGWYRQAPGKERELVADITARGVGTYYADSVKGRFTISRDNAKNTVYLQMNSLKPEDTAVYYCNVETYSFYTLYVTYDYWGQGTQVTVSS; low polyreactivity
QVQLVESGGGLVQAGGSLRLSCAASGSIYYRYAMGWYRQAPGKERELVAAISKRGGSTYYADSVKGRFTISRDNAKITVYLQMNRLKPEDTAVYYCAAEVSSFLYTPSYSTDDYWGQGTQVTVSS; high polyreactivity

Reported polyreactivity (PSR sort gate) for QVQLVESGGGLVQAGGSLRLSCAASGYIFYDNAMGWYRQAPVKERELVAAISASGGDTYYADSVKGRFTISRDNAKNTVYLQMNSLKPDDTAVYYCAADLITYAMEYWGQGTQVTVSS was low polyreactivity
